This section presents compounds with their documented fold induction at 50 µM values.
- System: S. aureus strain USA300-0114
- test name: AK assay 384-well format, Prestwick library screening
- Type: cell-based, Staphylococcus aureus
- condition parameters: Staphylococcus aureus, USA300, 3 h; 50 μM final drug concentration; 384-well format; cutoff for positive-scoring molecules 3-fold increase; read-out: AK-based Prestwick Library Screening Results, S. aureus (increase in extracellular AK activity)
Structures can show the parent of a compound that is named as a salt.

CN(C)CCC(c1ccc(Cl)cc1)c1ccccn1 (stereo not drawn) [Chlorpheniramine maleate] :: 0.8
CC(=O)CC(c1ccc([N+](=O)[O-])cc1)c1c(O)c2ccccc2oc1=O (stereo not drawn) [Acenocoumarol] :: 0.8

Moving on to another compound below.
Prompt: So what's the measured fold induction at 50 µM for this one? NS(=O)(=O)c1cc2c(cc1Cl)N=CNS2(=O)=O [Chlorothiazide]
Completion: 0.8

----------
- Test system: S. aureus strain USA300-0114
- test name: AK assay 384-well format, Prestwick library screening
- Format: cell-based, Staphylococcus aureus
- condition parameters: Staphylococcus aureus, USA300, 3 h; planktonic S. aureus; 50 μM final drug concentration; 384-well; cutoff for positive-scoring molecules 3-fold increase; read-out: AK-based Prestwick Library Screening Results: S. aureus (increase in extracellular AK activity)
Structures can show the parent of a compound that is named as a salt.
value type: fold induction at 50 µM
Would you mind answering with just the numeric figure?

Example entries and their recorded answers appear below.
CCN(CC)CCNC(=O)COc1ccc(OC)cc1 [Mefexamide hydrochloride] :: 0.9
CN(Cc1cnc2nc(N)nc(N)c2n1)c1ccc(C(=O)N[C@@H](CCC(=O)O)C(=O)O)cc1 [Methotrexate] :: 0.9

Prompt: What fold induction at 50 µM value was documented for this molecule, O=C(COc1ccc(Cl)cc1)N1CCN(Cc2ccc3c(c2)OCO3)CC1 [Fipexide hydrochloride] ?
Completion: 0.9

----------
- Tested on: E. cloacae
- test name: AK assay 384-well format, Prestwick library screening
- Type: cell-based, Enterobacter cloacae
- condition parameters: Enterobacter cloacae, 3 h; 50 μM final drug concentration; cutoff for positive-scoring molecules 3-fold increase; read-out: AK-based Prestwick Library Screening Results, E. cloacae (fold increase in extracellular AK activity)
Structures can show the parent of a compound that is named as a salt.
Item-by-item account of fold induction at 50 µM
Kindly provide the number alone.

Prompt: # get_value(readout='fold induction at 50 µM', item= Cc1oncc1C(=O)Nc1ccc(C(F)(F)F)cc1 [Leflunomide] )
Completion: 1.5

Prompt: # lookup: fold induction at 50 µM of CC(C)NCC(O)c1ccc2ccccc2c1 (stereo not shown) [Pronethalol hydrochloride]
Completion: 0.9

Prompt: Data request, read-out fold induction at 50 µM, for `Nc1cc(-c2ccncc2)c[nH]c1=O`
Completion: 44

----------
Readings of fold induction at 50 µM for the listed compounds
- Tested on: E. coli
- test name: AK assay 384-well format, Prestwick library screening
- Format: cell-based, Escherichia coli
- condition parameters: Escherichia coli, 3 h, 50 μM final drug concentration; […]; read-out: AK-based Prestwick Library Screening Results, E. coli (fold increase in extracellular AK activity)

CC(=O)N(CC(O)CN(C(C)=O)c1c(I)c(C(=O)NCC(O)CO)c(I)c(C(=O)NCC(O)CO)c1I)c1c(I)c(C(=O)NCC(O)CO)c(I)c(C(=O)NCC(O)CO)c1I (stereo not drawn) [Iodixanol] :: 1.3
O=c1ccc2cc(O)c(O)cc2o1 [Esculetin] :: 1.4

Moving on to another compound below.
Prompt: Return reported fold induction at 50 µM; argument: Cn1c(=O)c2[nH]cnc2n(C)c1=O [Theophylline monohydrate]
Completion: 1.2

----------
- Tested on: E. coli
- test name: AK assay 384-well format, Prestwick library screening
- Format: cell-based, Escherichia coli
- condition parameters: Escherichia coli, 3 h; planktonic E. coli; 50 μM final drug concentration; cutoff for positive-scoring molecules 3-fold increase; read-out: AK-based Prestwick Library Screening Results, E. coli (increase in extracellular AK activity)
Where a name gives a salt, the structure may show the parent alone.
Overview of recorded fold induction at 50 µM for various compounds
# answer = number (no unit)

Here's what some known entries look like.
CC[C@H](C)C(=O)O[C@H]1C[C@@H](C)C=C2C=C[C@H](C)[C@H](CC[C@@H]3C[C@@H](O)CC(=O)O3)[C@H]21 :: 1
CC1(C)S[C@@H]2[C@H](NC(=O)[C@H](N)c3ccc(O)cc3)C(=O)N2[C@H]1C(=O)O :: 10.6

Shifting focus to the compound that follows.
Prompt: // lookup fold induction at 50 µM for COC(=O)[C@H]1[C@H]2C[C@H]3c4[nH]c5ccccc5c4CCN3C[C@H]2CC[C@@H]1O [Rauwolscine hydrochloride]
Completion: 0.7

----------
- System: S. aureus strain USA300-0114
- test name: AK assay 384-well format, Prestwick library screening
- Format: cell-based, Staphylococcus aureus
- condition parameters: Staphylococcus aureus, USA300, 3 h; planktonic S. aureus; 50 μM final drug concentration; cutoff for positive-scoring molecules 3-fold increase; read-out: AK-based Prestwick Library Screening Results, S. aureus (increase in extracellular AK activity)
Counter-ions that a name gives are not always drawn.
Class boundaries, taken from values of fold induction at 50 µM, are as follows: bin 0 = under 0.6, bin 1 = from 0.6 up to 1, bin 2 = 1 and over

CCCCCCCCNC(C)C(O)c1ccc(SC(C)C)cc1 (stereo not drawn) [Suloctidil, suloctidil, reference compound] :: bin 2

Prompt: Exam item: assign CC(C)COCC(CN(Cc1ccccc1)c1ccccc1)N1CCCC1 (stereo not drawn) [Bepridil hydrochloride] to the correct category.
Completion: bin 2

Prompt: Assign a bin to O=C(CCCN1CC=C(n2c(=O)[nH]c3ccccc32)CC1)c1ccc(F)cc1 [Droperidol]
Completion: bin 1

Prompt: Which class is correct for the following molecule? CN1C(=O)OC(C)(C)C1=O [Trimethadione]
Completion: bin 1

Prompt: Category of C[C@@H](O)[C@H]1C(=O)N2C(C(=O)O)=C(SCCN=CN)C[C@H]12 [Imipenem] , please.
Completion: bin 2

Prompt: Assign a bin to C[C@@H]1CC[C@H]2[C@@H](C)C(=O)O[C@@H]3O[C@@]4(C)CC[C@@H]1[C@]32OO4 [Artemisinin]
Completion: bin 0

----------
- Test system: P. aeruginosa
- test name: AK assay 384-well format, Prestwick library screening
- Format: cell-based, Pseudomonas aeruginosa
- condition parameters: Pseudomonas aeruginosa, 3 h; 50 μM final drug concentration; 384-well format; cutoff for positive-scoring molecules 3-fold increase; read-out: AK-based Prestwick Library Screening Results, P. aeruginosa (increase in extracellular AK activity)
Counter-ions that a name gives are not always drawn.
Label y when fold induction at 50 µM is strictly below 0.7; otherwise label n.

Below, 5 molecules whose answers are already recorded.
CCc1nc(N)nc(N)c1-c1ccc(Cl)cc1 :: n
CCn1cc(C(=O)O)c(=O)c2cc3c(cc21)OCO3 :: n
CC(NC(C)(C)C)C(=O)c1cccc(Cl)c1 (stereo not drawn) [Bupropion hydrochloride] :: y
Clc1ccccc1C(c1ccccc1)(c1ccccc1)n1ccnc1 :: n
N=C(N)NC(=O)c1nc(Cl)c(N)nc1N [Amiloride hydrochloride dihydrate] :: y

Prompt: Is it true that fold induction at 50 µM reported for CN(C)C(=N)N=C(N)N [Metformin hydrochloride] is less than 0.7?
Completion: y

Prompt: A record lists OC(CCCN1CCCCC1)(c1ccccc1)c1ccccc1 [Diphenidol hydrochloride] . Is its fold induction at 50 µM below 0.7?
Completion: n

Prompt: Is it true that fold induction at 50 µM reported for Clc1cccc(Cl)c1N=C1NCCN1 [Clonidine hydrochloride] is less than 0.7?
Completion: y

----------
- Test system: E. cloacae
- test name: AK assay 384-well format, Prestwick library screening
- Format: cell-based, Enterobacter cloacae
- condition parameters: Enterobacter cloacae, 3 h; 50 μM final drug concentration; 384-well format; cutoff for positive-scoring molecules 3-fold increase; read-out: AK-based Prestwick Library Screening Results, E. cloacae (increase in extracellular AK activity)
Counter-ions that a name gives are not always drawn.
Decide using fold induction at 50 µM alone. Strictly below 1: rule met. Equal to or above 1: rule not met.

Prompt: Determine whether this compound shows fold induction at 50 µM lower than 1 (ties excluded): CN1CCC(=C2c3ccccc3C=Cc3ccccc32)CC1 [Cyproheptadine hydrochloride]
Completion: rule met

Prompt: Hello, is fold induction at 50 µM of the following compound strictly smaller than 1? `COc1ccc2cc([C@H](C)C(=O)O)ccc2c1`
Completion: rule not met

Prompt: Given the entry NNCCc1ccccc1 [Phenelzine sulfate] , would its reported fold induction at 50 µM be below 1?
Completion: rule met

Prompt: Check if fold induction at 50 µM falls below 1 for C[C@H](CCC(=O)O)[C@H]1CC[C@H]2[C@@H]3C(=O)C[C@@H]4CC(=O)CC[C@]4(C)[C@H]3CC(=O)[C@]12C [Dehydrocholic acid] .
Completion: rule not met

Prompt: Please state whether fold induction at 50 µM is below 1 for `Nc1ccc(S(=O)(=O)Nc2ncccn2)cc1`
Completion: rule met

Prompt: For CNCCC=C1c2ccccc2CCc2ccccc21 [Nortriptyline hydrochloride] , is the recorded fold induction at 50 µM below the cut-off of 1?
Completion: rule met

Prompt: Lab note: confirm whether the reported fold induction at 50 µM for this compound is below 1, equality not counting. compound: CC1(C)S[C@@H]2[C@H](NC(=O)[C@H](N)c3ccccc3)C(=O)N2[C@H]1C(=O)O [Ampicillin trihydrate]
Completion: rule not met
